target: human EP2 prostanoid receptors (Homo sapiens); construct: expressed in transfected cells; host or cells: HEK-293; assay: Agonist activity at recombinant human EP2 prostanoid receptors (cAMP in HEK-293 clones); assay type: cell-based; settings: HEK-293 stably transfected with human EP2; cAMP accumulation; read-out: pEC50 EP2 (converted)
Sequence (P43116 whole entry): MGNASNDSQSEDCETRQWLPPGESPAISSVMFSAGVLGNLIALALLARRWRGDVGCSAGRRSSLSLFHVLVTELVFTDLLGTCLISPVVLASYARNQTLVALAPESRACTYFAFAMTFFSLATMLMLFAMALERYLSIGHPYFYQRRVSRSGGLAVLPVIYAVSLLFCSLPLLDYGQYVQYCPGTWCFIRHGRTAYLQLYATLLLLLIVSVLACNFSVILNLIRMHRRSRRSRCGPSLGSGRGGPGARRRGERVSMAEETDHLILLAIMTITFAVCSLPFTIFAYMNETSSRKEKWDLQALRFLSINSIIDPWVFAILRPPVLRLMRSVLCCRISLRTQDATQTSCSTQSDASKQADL
What EC50 was measured for each of the following?

Request: Answer with reported EC50 of O=C(Nc1cccc(Cc2nnn[nH]2)c1)c1cccc(-c2ccc(Cl)cc2)n1
Result: < 0.1 µM

Request: Answer with reported EC50 of O=C(O)COc1cccc(NC(=O)c2cc(-c3ccc(F)cc3)ccc2F)c1
Result: < 0.1 µM

Request: Answer with reported EC50 of O=C(O)COc1cccc(NC(=O)c2cc(-c3cccc(F)c3)ccc2F)c1
Result: < 0.1 µM

Request: Answer with reported EC50 of O=C(O)Cc1cccc(NC(=O)c2cc(-c3ccccc3)ccc2F)c1
Result: < 0.1 µM

Request: Answer with reported EC50 of O=C(Nc1cccc(Cc2nnn[nH]2)c1)c1cccc(-c2ccccc2)n1
Result: < 0.1 µM

Request: Answer with reported EC50 of CN(C)c1ccc(-c2ccc(C(=O)Nc3cccc(CC(=O)O)c3)o2)cc1
Result: < 10 µM

Request: Answer with reported EC50 of O=C(O)Cc1ccc(NC(=O)c2ccc(-c3ccccc3)o2)cc1
Result: < 10 µM

Request: Answer with reported EC50 of O=C(O)Cc1cccc(NC(=O)c2ccc(-c3cccc(Cl)c3Cl)o2)c1
Result: < 1 µM

Request: Answer with reported EC50 of O=C(O)Cc1cccc(NC(=O)c2cccc(-c3ccc(F)cc3)n2)c1
Result: < 0.1 µM
